tested on: Botrytis cinerea; experiment: Test for Botrytis cinerea on cucumbers: effect of prevention of diseased spot-development; type: in vivo; conditions: cucumber; 100 ppm, 7 ml per pot, applied one day after inoculation
measured-endpoint: Effect for prevention of diseased spot-development (%)
State just the number; it will be interpreted in %.

Q. Returns the measured Effect for prevention of diseased spot-development for the input compound. Input: CC(C)S(=O)(=O)N1CC(=O)N(c2cc(Cl)cc(Cl)c2)C1=O [Compound 56]
A. 78

Q. Returns the measured Effect for prevention of diseased spot-development for the input compound. Input: CCCCS(=O)(=O)N1CC(=O)N(c2cc(Cl)cc(Cl)c2)C1=O [Compound 57]
A. 65

Q. Returns the measured Effect for prevention of diseased spot-development for the input compound. Input: CCCS(=O)(=O)N1CC(=O)N(c2cc(Cl)cc(Cl)c2)C1=O [Compound 55]
A. 88

Q. Returns the measured Effect for prevention of diseased spot-development for the input compound. Input: CC(C)CS(=O)(=O)N1CC(=O)N(c2cc(Cl)cc(Cl)c2)C1=O [Compound 58]
A. 73
